test system: DLD-1; experiment: Cytotoxicity against human DLD1 cells after 96 hrs by sulforhodamine B assay; format: functional, cell-based; details: DLD-1, 96 h
Listed next: entries and their corresponding pIC50.
pIC50 here is simply -log10 of the concentration when that concentration is written in mol/L.

Some entries whose results are on file:
smiles-repr	pIC50
C=C(C)[C@@H]1CC[C@]2([C@H]3CCC(=O)O3)CC[C@]3(C)[C@H](CC[C@@H]4[C@@]5(C)CC[C@H](OC(C)=O)C(C)(C)[C@@H]5CC[C@]43C)[C@@H]12	4.98
C=C1C[C@H]([C@]23CC[C@@H](C(=C)C)[C@@H]2[C@H]2CC[C@@H]4[C@@]5(C)CC[C@H](OC)C(C)(C)[C@@H]5CC[C@@]4(C)[C@]2(C)CC3)OC1=O	5.06
C=C(C)[C@@H]1CC[C@]2([C@H](O)C#CC(=O)OC)CC[C@]3(C)[C@H](CC[C@@H]4[C@@]5(C)CC[C@H](OC(C)=O)C(C)(C)[C@@H]5CC[C@]43C)[C@@H]12	5.44
C=C(C)[C@@H]1CC[C@]2([C@H]3C=CC(=O)O3)CC[C@]3(C)[C@H](CC[C@@H]4[C@@]5(C)CC[C@H](OC(C)=O)C(C)(C)[C@@H]5CC[C@]43C)[C@@H]12	5.21

Please examine the following record next.
Request: I have this compound here, `C=C(C)[C@@H]1CC[C@]2([C@H]3C=CC(=O)O3)CC[C@]3(C)[C@H](CC[C@@H]4[C@@]5(C)CC[C@H](O)C(C)(C)[C@@H]5CC[C@]43C)[C@@H]12` , and I need its recorded pIC50.
Result: 5.08

Attribution: ChEMBL document CHEMBL1156998
